Sourced from paper PMC4336329

Answer each item with its documented hERG current change (%, negative = inhibition) at 10uM.
molecular target: human ether-à-go-go-related gene (hERG) potassium channel (human, UniProt Q12809); experiment: primary screen, population patch clamp on CHO cells stably expressing hERG; higher = less effect of the substance;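 also: peak tail current of the secondary pulse compared with the same well before compound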
Sequence (Q12809 whole entry, looked up): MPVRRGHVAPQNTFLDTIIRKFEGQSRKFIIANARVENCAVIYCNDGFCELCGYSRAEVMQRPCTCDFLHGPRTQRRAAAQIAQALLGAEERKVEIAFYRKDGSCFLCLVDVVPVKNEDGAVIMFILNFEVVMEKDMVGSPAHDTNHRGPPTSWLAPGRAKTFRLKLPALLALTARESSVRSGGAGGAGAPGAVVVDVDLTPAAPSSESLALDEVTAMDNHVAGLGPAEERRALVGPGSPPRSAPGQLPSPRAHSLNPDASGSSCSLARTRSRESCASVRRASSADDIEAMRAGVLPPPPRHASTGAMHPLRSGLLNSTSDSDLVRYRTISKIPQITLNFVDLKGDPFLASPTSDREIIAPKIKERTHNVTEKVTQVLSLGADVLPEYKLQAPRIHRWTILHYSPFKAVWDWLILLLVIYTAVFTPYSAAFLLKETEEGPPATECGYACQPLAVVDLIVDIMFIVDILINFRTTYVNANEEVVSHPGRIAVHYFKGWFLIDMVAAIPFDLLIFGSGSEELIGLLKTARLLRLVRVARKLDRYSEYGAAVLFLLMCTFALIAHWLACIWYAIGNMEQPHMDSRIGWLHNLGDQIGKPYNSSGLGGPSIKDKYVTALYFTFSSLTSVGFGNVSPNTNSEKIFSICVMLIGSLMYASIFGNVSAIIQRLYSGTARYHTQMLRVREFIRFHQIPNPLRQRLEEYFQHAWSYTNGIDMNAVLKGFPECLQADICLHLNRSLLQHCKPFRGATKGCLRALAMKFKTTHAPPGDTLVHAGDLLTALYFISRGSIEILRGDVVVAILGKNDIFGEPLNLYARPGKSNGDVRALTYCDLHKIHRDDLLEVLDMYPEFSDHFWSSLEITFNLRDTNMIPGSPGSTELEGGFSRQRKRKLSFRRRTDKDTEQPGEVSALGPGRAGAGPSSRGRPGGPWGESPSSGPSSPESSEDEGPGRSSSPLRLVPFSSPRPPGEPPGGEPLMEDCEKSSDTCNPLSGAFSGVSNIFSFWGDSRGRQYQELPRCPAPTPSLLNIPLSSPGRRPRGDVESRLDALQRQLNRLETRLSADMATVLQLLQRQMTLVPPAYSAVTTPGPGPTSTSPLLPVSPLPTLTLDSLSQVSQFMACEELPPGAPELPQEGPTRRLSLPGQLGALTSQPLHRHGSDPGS
Hit rate of the full screen: of about 310,000 compounds, about 14,000 (4.5%) showed an effect of 50% or more. Effects have a minus sign here. The full list was thinned out, with strong results kept by preference.

// input: 2 compounds below; output: hERG current change (%, negative = inhibition) at 10uM for each
1. NC1=NC(=O)/C(=C\c2cccs2)S1
2. Oc1ccccc1C1=Nc2ncnn2C(c2ccccc2)C1 (centres unmarked)

[A]
["8.6%", "-16.6%"]

// input: 3 compounds below; output: hERG current change (%, negative = inhibition) at 10uM for each
1. CCOC(=O)C1CCC(CNCc2ccc(Cl)cc2)CC1 (centres unmarked)
2. N#Cc1nc(-c2ccco2)oc1NCCc1ccccc1
3. CCOC(=O)C1CCN(S(=O)(=O)Cc2ccc(Cl)cc2)CC1

[A]
["-69.2%", "-5.59%", "1.25%"]

// input: 3 compounds below; output: hERG current change (%, negative = inhibition) at 10uM for each
1. COc1ccccc1CN(CC(=O)NCc1ccc(F)cc1)C(=O)c1csnn1
2. CCOc1ccc(C(CC(=O)O)NC(=O)c2ccco2)cc1 (centres unmarked)
3. Cc1ccc(S(=O)(=O)N/N=C/c2ccc(C(=O)O)cc2)cc1

[A]
1. -35.3%
2. 11%
3. 15.2%

// input: 5 compounds below; output: hERG current change (%, negative = inhibition) at 10uM for each
1. COc1ccc(CNC(=O)CN(Cc2ccccc2OC)C(=O)c2csnn2)cc1
2. C=CCN(CC(=O)NCc1ccc(OC)cc1)C(=O)c1csnn1
3. COc1ccc(CNC(=O)CN(Cc2ccc(OC)cc2)C(=O)c2csnn2)cc1
4. C/C(=N\Nc1cc(N2CCOCC2)nc(C)n1)c1ccc(F)cc1
5. CC1CCc2[nH]c3ccc(C(=O)N(C)CC(=O)Nc4ccccc4C(F)(F)F)cc3c2C1 (centres unmarked)

[A]
["-29%", "-16.7%", "-57.5%", "-12%", "4.13%"]

// input: 4 compounds below; output: hERG current change (%, negative = inhibition) at 10uM for each
1. CC1(C)Cc2c(cnn2-c2ccc(F)cc2)C(NC(=O)CCN2CCCC2=O)C1 (centres unmarked)
2. O=C(CCc1ccccn1)NC1CCCc2c1cnn2-c1ccc(F)cc1F (centres unmarked)
3. CC(c1ccccc1)n1cncc1C(=O)O (centres unmarked)
4. CC(=O)c1cccc(OCC(O)CN2CC=C(c3ccccc3)CC2)c1.O=C(O)C(=O)O (centres unmarked)

[A]
5.01%
3.18%
18%
-68.9%

// input: 2 compounds below; output: hERG current change (%, negative = inhibition) at 10uM for each
1. COc1ccc(CNC(=O)CN(Cc2ccc(Cl)cc2)C(=O)c2csnn2)cc1
2. CCN1CCN(c2ccc(S(=O)(=O)N3CCCCC3)cc2NC(=O)c2cccc(NC(C)=O)c2)CC1

[A]
["-71.7%", "-71.3%"]

// input: 5 compounds below; output: hERG current change (%, negative = inhibition) at 10uM for each
1. O=C(NNC(=O)c1ccc(Br)s1)NC1CCCCC1
2. COc1cccc(OCC(O)CN2CCN(C)CC2)c1.O=C(O)C(=O)O (centres unmarked)
3. Oc1ccccc1C1=NN(c2ccccc2)C(c2ccc(F)cc2)C1 (centres unmarked)
4. CC(=O)c1cccc(OCC(O)CN2CCN(S(=O)(=O)c3c(F)cccc3F)CC2)c1.O=C(O)C(=O)O (centres unmarked)
5. COc1cccc(C(=O)Nc2cc(NC(=O)c3cccs3)ccc2C)c1OC

[A]
28.1%
16.2%
9.68%
-31%
-14%

// input: 7 compounds below; output: hERG current change (%, negative = inhibition) at 10uM for each
1. COc1ccc(-c2nn3c(-c4ccccn4)nnc3s2)cc1OC
2. CC1(C)CC(NC(=O)C(F)(F)F)CC(C)(C)N1OC(=O)c1ccco1
3. Cc1ccc2cc(CN(Cc3ccco3)S(=O)(=O)c3c(C)ccc4nsnc34)c(=O)[nH]c2c1
4. Cc1cc(C)n(-c2nnc(C)n2NS(C)(=O)=O)n1
5. COc1ccc(CN(CC(=O)NCc2ccccc2)C(=O)c2csnn2)cc1
6. Oc1ccccc1C1=Nc2ncnn2C(c2ccc(F)cc2)C1 (centres unmarked)
7. COc1ccc(CNC(=O)CN(Cc2ccccc2)C(=O)c2csnn2)cc1

[A]
["10.6%", "1.13%", "2.82%", "14.6%", "-26.6%", "-80.8%", "-32.3%"]
